Data origin, for the record: patent US11584762B1

Listing: ε (molar extinction coefficient) of selected compounds
measurement notes: Photophysical properties in acetonitrile (absorption, emission, extinction coefficient, quantum yield)
Assay type: physicochemical
condition set: Table 2; in acetonitrile
measure name: ε (molar extinction coefficient) (M^−1 · cm^−1 × 10^4)

smiles structure | measure name | value
CCOC(=O)CCC1=C2C(C)=CC(/C=C/c3ccc4c(c3)c3ccccc3n4Cc3cn(CCCN(C)CCN(C)C)nn3)=[N+]2[B-](F)(F)n2c(/C=C/c3ccc4c(c3)c3ccccc3n4Cc3cn(CCCN(C)CCN(C)C)nn3)cc(C)c21 | ε (molar extinction coefficient) | 11.0
CCOC(=O)CCC1=C2C(C)=CC(C)=[N+]2[B-](F)(F)n2c(C=Cc3ccc4c(c3)c3ccccc3n4Cc3cn(CCCN(C)CCN(C)C)nn3)cc(C)c21 | ε (molar extinction coefficient) | 10.8
COc1ccc(C2=C3C(C)=C(Cl)C(C=Cc4ccc5c(c4)c4ccccc4n5Cc4cn(CCN5CCNCC5)nn4)=[N+]3[B-](F)(F)n3c(C=Cc4ccc5c(c4)c4ccccc4n5Cc4cn(CCN5CCNCC5)nn4)c(Cl)c(C)c32)cc1 | ε (molar extinction coefficient) | 11.1
CC1=C(Cl)C(C)=[N+]2C1=C(c1ccc(C)cc1)c1c(C)c(Cl)c(C=Cc3ccc4c(c3)c3ccccc3n4Cc3cn(CCN4CCNCC4)nn3)n1[B-]2(F)F | ε (molar extinction coefficient) | 8.1

====

measurement notes: Photophysical properties in acetonitrile (absorption, emission, extinction coefficient, quantum yield)
Format: physicochemical
condition set: Table 1; acetonitrile
measure name: ε (molar extinction coefficient) (M^−1 · cm^−1 × 10^4)

compound | result unit | value
CC1=CC(C)=[N+]2C1=C(c1ccccc1)c1c(C)cc(C=Cc3ccc4c(c3)c3ccccc3n4Cc3cn(CCN(C)CCN(C)C)nn3)n1[B-]2(F)F [D1] | M^−1 · cm^−1 × 10^4 | 7.5
CC1=C(Cl)C(C=Cc2ccc3c(c2)c2ccccc2n3Cc2cn(CCN(C)CCN(C)C)nn2)=[N+]2C1=C(c1ccccc1)c1c(C)c(Cl)c(C=Cc3ccc4c(c3)c3ccccc3n4Cc3cn(CCN(C)CCN(C)C)nn3)n1[B-]2(F)F | M^−1 · cm^−1 × 10^4 | 11.3
CC1=CC(C=Cc2ccc3c(c2)c2ccccc2n3Cc2cn(CCN(C)CCN(C)C)nn2)=[N+]2C1=C(c1ccccc1)c1c(C)cc(C=Cc3ccc4c(c3)c3ccccc3n4Cc3cn(CCN(C)CCN(C)C)nn3)n1[B-]2(F)F | M^−1 · cm^−1 × 10^4 | 9.2
CC1=C(Cl)C(C)=[N+]2C1=C(c1ccccc1)c1c(C)c(Cl)c(C=Cc3ccc4c(c3)c3ccccc3n4Cc3cn(CCN(C)CCN(C)C)nn3)n1[B-]2(F)F [D2] | M^−1 · cm^−1 × 10^4 | 10.4

====

measurement notes: Photophysical properties in acetonitrile (absorption, emission, extinction coefficient, quantum yield)
Assay type: physicochemical
condition set: Table 1; acetonitrile
Listing: Φ^1 (fluorescence quantum yield) of selected compounds

compound | Φ^1 (fluorescence quantum yield)
CC1=C(Cl)C(C)=[N+]2C1=C(c1ccccc1)c1c(C)c(Cl)c(C=Cc3ccc4c(c3)c3ccccc3n4Cc3cn(CCN(C)CCN(C)C)nn3)n1[B-]2(F)F [D2] | 0.63
CC1=CC(C=Cc2ccc3c(c2)c2ccccc2n3Cc2cn(CCN(C)CCN(C)C)nn2)=[N+]2C1=C(c1ccccc1)c1c(C)cc(C=Cc3ccc4c(c3)c3ccccc3n4Cc3cn(CCN(C)CCN(C)C)nn3)n1[B-]2(F)F [D25] | 0.94
CC1=CC(C)=[N+]2C1=C(c1ccccc1)c1c(C)cc(C=Cc3ccc4c(c3)c3ccccc3n4Cc3cn(CCN(C)CCN(C)C)nn3)n1[B-]2(F)F [D1] | 0.83
CC1=C(Cl)C(C=Cc2ccc3c(c2)c2ccccc2n3Cc2cn(CCN(C)CCN(C)C)nn2)=[N+]2C1=C(c1ccccc1)c1c(C)c(Cl)c(C=Cc3ccc4c(c3)c3ccccc3n4Cc3cn(CCN(C)CCN(C)C)nn3)n1[B-]2(F)F [D26] | 0.72

====

measurement notes: Photophysical properties in acetonitrile (absorption, emission, extinction coefficient, quantum yield)
Assay type: physicochemical
condition set: Table 2; in acetonitrile
measure name: λem (maximum emission) (nm)

molecule | value
CC1=C(Cl)C(C)=[N+]2C1=C(c1ccc(C)cc1)c1c(C)c(Cl)c(C=Cc3ccc4c(c3)c3ccccc3n4Cc3cn(CCN4CCNCC4)nn3)n1[B-]2(F)F [D6] | 615
CCOC(=O)CCC1=C2C(C)=CC(/C=C/c3ccc4c(c3)c3ccccc3n4Cc3cn(CCCN(C)CCN(C)C)nn3)=[N+]2[B-](F)(F)n2c(/C=C/c3ccc4c(c3)c3ccccc3n4Cc3cn(CCCN(C)CCN(C)C)nn3)cc(C)c21 [D46] | 675
CCOC(=O)CCC1=C2C(C)=CC(C)=[N+]2[B-](F)(F)n2c(C=Cc3ccc4c(c3)c3ccccc3n4Cc3cn(CCCN(C)CCN(C)C)nn3)cc(C)c21 [D22] | 661
COc1ccc(C2=C3C(C)=C(Cl)C(C=Cc4ccc5c(c4)c4ccccc4n5Cc4cn(CCN5CCNCC5)nn4)=[N+]3[B-](F)(F)n3c(C=Cc4ccc5c(c4)c4ccccc4n5Cc4cn(CCN5CCNCC5)nn4)c(Cl)c(C)c32)cc1 [D51] | 728

====

measurement notes: Photophysical properties in acetonitrile (absorption, emission, extinction coefficient, quantum yield)
Type: physicochemical
condition set: Table 1; acetonitrile, 1 μM, trifluoroacetic acid 0.1% by volume
Listing: λab (maximum absorption) of selected molecules
measure name: λab (maximum absorption) (nm)

molecule | measure name | result unit | value
CC1=C(Cl)C(C=Cc2ccc3c(c2)c2ccccc2n3Cc2cn(CCN(C)CCN(C)C)nn2)=[N+]2C1=C(c1ccccc1)c1c(C)c(Cl)c(C=Cc3ccc4c(c3)c3ccccc3n4Cc3cn(CCN(C)CCN(C)C)nn3)n1[B-]2(F)F | λab (maximum absorption) | nm | 692
CC1=CC(C=Cc2ccc3c(c2)c2ccccc2n3Cc2cn(CCN(C)CCN(C)C)nn2)=[N+]2C1=C(c1ccccc1)c1c(C)cc(C=Cc3ccc4c(c3)c3ccccc3n4Cc3cn(CCN(C)CCN(C)C)nn3)n1[B-]2(F)F | λab (maximum absorption) | nm | 664
CC1=CC(C)=[N+]2C1=C(c1ccccc1)c1c(C)cc(C=Cc3ccc4c(c3)c3ccccc3n4Cc3cn(CCN(C)CCN(C)C)nn3)n1[B-]2(F)F [D1] | λab (maximum absorption) | nm | 581
CC1=C(Cl)C(C)=[N+]2C1=C(c1ccccc1)c1c(C)c(Cl)c(C=Cc3ccc4c(c3)c3ccccc3n4Cc3cn(CCN(C)CCN(C)C)nn3)n1[B-]2(F)F [D2] | λab (maximum absorption) | nm | 604

====

Listing: λem (maximum emission) of selected compounds
measurement notes: Photophysical properties in acetonitrile (absorption, emission, extinction coefficient, quantum yield)
Assay type: physicochemical
condition set: Table 1; acetonitrile, 1 μM, trifluoroacetic acid 0.1% by volume
Method: The photophysical properties of compounds D1, D2, D25 and D26 were investigated. Compounds D1, D2, D25 and D26 were dissolved in DMSO to obtain a 1 mM stock solution. […] The absorption spectrum, emission spectrum, quantum yield and molar extinction coefficient of these testing solutions were measured. The absorption spectrum was recorded on Agilent 8453 UV-Vis-Spectrophotometer, and the fluorescent spectrum was recorded on an Agilent fluorescence spectrometer. […]
measure name: λem (maximum emission) (nm)

compound | value
CC1=C(Cl)C(C)=[N+]2C1=C(c1ccccc1)c1c(C)c(Cl)c(C=Cc3ccc4c(c3)c3ccccc3n4Cc3cn(CCN(C)CCN(C)C)nn3)n1[B-]2(F)F [D2] | 650
CC1=C(Cl)C(C=Cc2ccc3c(c2)c2ccccc2n3Cc2cn(CCN(C)CCN(C)C)nn2)=[N+]2C1=C(c1ccccc1)c1c(C)c(Cl)c(C=Cc3ccc4c(c3)c3ccccc3n4Cc3cn(CCN(C)CCN(C)C)nn3)n1[B-]2(F)F | 732
CC1=CC(C=Cc2ccc3c(c2)c2ccccc2n3Cc2cn(CCN(C)CCN(C)C)nn2)=[N+]2C1=C(c1ccccc1)c1c(C)cc(C=Cc3ccc4c(c3)c3ccccc3n4Cc3cn(CCN(C)CCN(C)C)nn3)n1[B-]2(F)F | 684
CC1=CC(C)=[N+]2C1=C(c1ccccc1)c1c(C)cc(C=Cc3ccc4c(c3)c3ccccc3n4Cc3cn(CCN(C)CCN(C)C)nn3)n1[B-]2(F)F [D1] | 603

====

measurement notes: Photophysical properties in acetonitrile (absorption, emission, extinction coefficient, quantum yield)
Assay type: physicochemical
condition set: Table 2; in acetonitrile
Listing: λab (maximum absorption) of selected compounds

smiles structure | λab (maximum absorption)
CCOC(=O)CCC1=C2C(C)=CC(C)=[N+]2[B-](F)(F)n2c(C=Cc3ccc4c(c3)c3ccccc3n4Cc3cn(CCCN(C)CCN(C)C)nn3)cc(C)c21 | 611 nm
CCOC(=O)CCC1=C2C(C)=CC(/C=C/c3ccc4c(c3)c3ccccc3n4Cc3cn(CCCN(C)CCN(C)C)nn3)=[N+]2[B-](F)(F)n2c(/C=C/c3ccc4c(c3)c3ccccc3n4Cc3cn(CCCN(C)CCN(C)C)nn3)cc(C)c21 | 659 nm
COc1ccc(C2=C3C(C)=C(Cl)C(C=Cc4ccc5c(c4)c4ccccc4n5Cc4cn(CCN5CCNCC5)nn4)=[N+]3[B-](F)(F)n3c(C=Cc4ccc5c(c4)c4ccccc4n5Cc4cn(CCN5CCNCC5)nn4)c(Cl)c(C)c32)cc1 | 689 nm
CC1=C(Cl)C(C)=[N+]2C1=C(c1ccc(C)cc1)c1c(C)c(Cl)c(C=Cc3ccc4c(c3)c3ccccc3n4Cc3cn(CCN4CCNCC4)nn3)n1[B-]2(F)F | 590 nm
